Tested on: TK-10
Assay: NCI tumour cell line growth inhibition, 48 h
Calls of active or inactive are those of the source. Cut-off read from the data, not from the text of the source: active = GI50 up to about 1.1 µM and inactive = higher.
Assignment: determine reported GI50 for the given compounds.

**Q:** Form field: reported GI50 of `C[n+]1c(-c2ccc(/C=N/NC(=O)C(=O)N/N=C/c3ccc(-c4cn5ccsc5[n+]4C)cc3)cc2)cn2ccsc21`
**A:** > 100 µM (inactive)

**Q:** Form field: reported GI50 of `CC[P+]1(c2ccccc2)[C@@H](C)CC[C@@H]1C`
**A:** > 100 µM (inactive)

**Q:** Form field: reported GI50 of CCCCCCCC/C=C(\Br)C(O)C(Br)Br (stereo not drawn)
**A:** 39.4 µM (inactive)

**Q:** Form field: reported GI50 of `Cn1c(=O)[nH]c2nccnc2c1=O`
**A:** > 10 µM (inactive)

**Q:** Form field: reported GI50 of CCOC(=O)C(NC(=O)c1ccccc1)(c1ccc(S(=O)(=O)Nc2onc(C)c2C)cc1)C(F)(F)F (stereo not drawn)
**A:** > 100 µM (inactive)

**Q:** Form field: reported GI50 of `CCC/N=C/c1cc(Cc2ccc(O)c(/C=N/CCC)c2)ccc1O`
**A:** 11.1 µM (inactive)

**Q:** Form field: reported GI50 of `Cn1nnnc1SC(F)(F)c1nc2ccccc2o1`
**A:** > 100 µM (inactive)

**Q:** Form field: reported GI50 of `O=C1CCCC/C1=C(\Br)I`
**A:** 13.9 µM (inactive)

**Q:** Form field: reported GI50 of `CS(=O)(=O)N(CC(=O)O)Cc1ccccc1`
**A:** > 100 µM (inactive)

**Q:** Form field: reported GI50 of `N#CCCN(CCN(CCN(C(=O)Nc1ccccc1)c1ccccc1)C(=O)Nc1ccccc1)C(=O)Nc1ccccc1`
**A:** > 100 µM (inactive)

**Q:** Form field: reported GI50 of O=C1C(Cl)C(c2ccccc2)N1n1cnc2ccccc2c1=O (stereo not drawn)
**A:** > 100 µM (inactive)

**Q:** Form field: reported GI50 of COc1ccc(NC(=O)CC(=O)N2N=C(N3c4ccccc4Sc4ccccc43)CC2c2ccccc2)cc1 (stereo not drawn)
**A:** > 100 µM (inactive)

**Q:** Form field: reported GI50 of CC(C)=CCC/C(C)=C/CCC1(C)C2COC(=O)C21 (stereo not drawn)
**A:** > 100 µM (inactive)

**Q:** Form field: reported GI50 of CC(C)N(C(=O)C12C3C4C5C3C1(C(=O)N(C(C)C)C(C)C)C5C42)C(C)C (stereo not drawn)
**A:** > 100 µM (inactive)

**Q:** Form field: reported GI50 of `S=C(N/N=C\C=N/NC(=S)N1CCCCC1)N1CCCCC1`
**A:** 1.61 µM (inactive)

**Q:** Form field: reported GI50 of `CC[C@@]12CCCN3CC[C@]4(c5cccc(OC)c5N(C(C)=O)[C@@H]4CC1)[C@H]32`
**A:** 56.5 µM (inactive)

**Q:** Form field: reported GI50 of NC(Cc1ccccc1)C(=O)OCN1C(=O)C2C3C=CC(C2C1=O)C1C(=O)N(COC(=O)C(N)Cc2ccccc2)C(=O)C31 (stereo not drawn)
**A:** > 100 µM (inactive)

**Q:** Form field: reported GI50 of `Cc1cc2c(cc1Cl)SC(N/N=C(\N)c1ccc(Cl)cc1)=NS2(=O)=O`
**A:** > 100 µM (inactive)

**Q:** Form field: reported GI50 of COc1cc2c(cc1OC)C(C(CO)CO)N(CC(O)CCl)CC2 (stereo not drawn)
**A:** > 100 µM (inactive)

**Q:** Form field: reported GI50 of Nc1ncnc2c1ncn2C1CC(O)C(CO)O1 (stereo not drawn)
**A:** > 100 µM (inactive)

**Q:** Form field: reported GI50 of CCCC(=O)N[C@H]1C2C3CC4C5CC(C42)C1(C)C53 (stereo partly drawn)
**A:** > 100 µM (inactive)

**Q:** Form field: reported GI50 of `N#C/C(=C\c1cccc(Cl)c1Cl)c1ccccc1`
**A:** 57.3 µM (inactive)

**Q:** Form field: reported GI50 of `Cc1nc(Nc2nc3ccccc3[nH]2)nc(Cl)c1CCCl`
**A:** > 100 µM (inactive)

**Q:** Form field: reported GI50 of CCOC(=O)C(C)NC(=O)NC12CC3CC(CC(F)(C3)C1)C2 (stereo not drawn)
**A:** > 100 µM (inactive)

**Q:** Form field: reported GI50 of `N#C/C(=C1\N=NC(N)=C(c2ccc(Cl)cc2)C1=O)c1ccc(Cl)cc1`
**A:** > 100 µM (inactive)

**Q:** Form field: reported GI50 of NC(CCc1nc(-c2ccccc2)cs1)C(=O)O (stereo not drawn)
**A:** > 100 µM (inactive)

**Q:** Form field: reported GI50 of `O=C1O/C(=C\c2ccc(O)c(Br)c2)C(c2ccc(O)cc2)=C1Cl`
**A:** 45.6 µM (inactive)

**Q:** Form field: reported GI50 of `O=C(/C=C/c1ccc(OCc2ccccc2)cc1)NCc1ccc(C(=O)NCCc2c[nH]c3ccccc23)cc1`
**A:** 9.35 µM (inactive)

**Q:** Form field: reported GI50 of `Nc1ccc(C(=O)N2CCC[C@H]2CO)c(N)c1`
**A:** > 100 µM (inactive)

**Q:** Form field: reported GI50 of `Cn1ccnc1CCc1ccc(Cl)cc1Cl`
**A:** > 100 µM (inactive)

**Q:** Form field: reported GI50 of CCC(C)N1CN(c2ccccc2)C2(CCN(CCCC3(c4ccc(F)cc4)OCCO3)CC2)C1=O (stereo not drawn)
**A:** 7.5 µM (inactive)

**Q:** Form field: reported GI50 of OCCCCCCCCCCCOc1ccc(C2OCC3(CO2)COC(c2ccc(OCCCCCCCCCCCO)cc2)OC3)cc1 (stereo not drawn)
**A:** > 50 µM (inactive)

**Q:** Form field: reported GI50 of `CCOC(=O)/C=C(/C(=O)OCC)n1cnc2c(=O)[nH]c(NC(C)=O)nc21`
**A:** > 100 µM (inactive)

**Q:** Form field: reported GI50 of `O=[N+]([O-])C(=C(Nc1cccc2cccnc12)Nc1cccc2cccnc12)C(Cl)=C(Cl)Cl`
**A:** > 100 µM (inactive)

**Q:** Form field: reported GI50 of `CCOC(=O)c1[nH]cc(C)c1-c1cccn1-c1ccc(Cl)cc1[N+](=O)[O-]`
**A:** 14.4 µM (inactive)

**Q:** Form field: reported GI50 of `COc1ccc2cc3[n+](cc2c1OC)CCc1cc(O)c(O)cc1-3`
**A:** > 100 µM (inactive)

**Q:** Form field: reported GI50 of `C/C(=N\NC(N)=S)c1ccc(C2CCCCC2)cc1`
**A:** 26 µM (inactive)

**Q:** Form field: reported GI50 of S=C(/N=C1/NCC(CN2CCN(c3ccccc3)CC2)O1)Nc1ccccc1 (stereo not drawn)
**A:** > 100 µM (inactive)

All values here come from ChEMBL document CHEMBL1201862.
